Origin of the recorded values: ChEMBL document CHEMBL1201862

- System: SW-620
- assay-procedure: NCI tumour cell line growth inhibition, 48 h
The source made the active and inactive calls. Cut-off read from the data, not from the text of the source: active = GI50 up to about 1.1 µM and inactive = higher. *1 amine or outer side, *2 acyl side, *3 side chain or, on linkers, in order; H or OH if unused. Where a SMILES comes first, the peptide text is derived from it. Bridges are numbered along the chain shown (N, C = ends). Roman numbers before positions name the chains, in order. [ ]: non-standard residue; d: D form. Actinocin(9to1) = Cc1c2oc3c(C)ccc(C(=O)[*:1])c3nc-2c(C(=O)[*:2])c(N)c1=O; NMeV = CN[CH](C(=O)O)C(C)C; Sar = CNCC(=O)O
quantity: GI50

# input Given the molecule Fc1ccccc1CN1COc2c(cc(Cl)c3cccnc23)C1 , what is its reported GI50?
# output 3.08 µM (inactive)

# input Request: CCCCCCCCOCC1S(=O)(=O)OCCOS1(=O)=O
# output > 100 µM (inactive)

# input Request: O=c1[nH]cnc2c(COCCCO)c[nH]c12
# output > 100 µM (inactive)

# input Request: CCNC(=S)N/N=C/c1ccccn1
# output 6 µM (inactive)

# input Request: N#C/C(N)=C(C#N)/N=C/Nc1ccc(N)cc1
# output > 100 µM (inactive)

# input Request: Nc1nc(-c2ccc3ccccc3c2)cc(-c2cc(-c3ccc4ccccc4c3)nc(N)n2)n1
# output > 100 µM (inactive)

# input Request: CC1(CO)OC(n2cnc3c(N)ncnc32)C(O)C1O (stereo not drawn)
# output > 100 µM (inactive)

# input Request: Cc1c2oc3c(C)ccc(C(=O)NC4C(=O)NC(C(C)O)C(=O)N5CCCC5C(=O)N(C)CC(=O)N(C)C(C(C)C)C(=O)OC4C)c3nc-2c(C(=O)NC2C(=O)NC(C(C)O)C(=O)N3CCCC3C(=O)N(C)CC(=O)N(C)C(C(C)C)C(=O)OC2C)c(N)c1=O (stereo not drawn) (I: TTP[Sar][NMeV] / II: TTP[Sar][NMeV]; ester I:1-I:C, II:1-II:C; linker I:N-II:N via Actinocin(9to1); configuration not given here)
# output 0.067 µM (active)

---

Would you kindly list GI50 for each of these compounds?
- Test system: SF-539
- assay-procedure: NCI tumour cell line growth inhibition, 48 h
Calls of active or inactive are those of the source. Rule as the data show it: active = GI50 up to about 1.1 µM and inactive = higher.

# input What measured GI50 is associated with CC(C)(C)[C@H]1NC(=O)CN1C(=O)OCc1ccccc1 on SF-539?
# output > 100 µM (inactive)

# input Request: COC(=O)C(C(=O)C(=O)Nc1ccc(C)cc1C)c1nc2ccc([N+](=O)[O-])cc2nc1O (stereo not drawn)
# output > 100 µM (inactive)

# input Request: Cc1ccc(C(=O)C(C)N)cc1 (stereo not drawn)
# output > 100 µM (inactive)

# input Request: C[N+](C)(C)c1ncnc2c1ncn2C1CC(O)C(CO)O1 (stereo not drawn)
# output > 100 µM (inactive)

# input Request: O=P(O)(O)CC1OC(CO)C(O)C1O (stereo not drawn)
# output > 100 µM (inactive)

# input Request: ClC(/N=N/c1ccccc1)=N/Nc1ccccc1
# output > 100 µM (inactive)

# input Request: O=C(O)c1nc2cc(Cl)ccc2[nH]c1=O
# output > 100 µM (inactive)

# input Request: O=C1C(Br)=C(Br)C(=O)c2ccc(=O)ccc21
# output 24.7 µM (inactive)

# input Request: COc1ccc(/C=C2\NC(=S)N(/C=C3\C(=O)Oc4ccccc4C3=O)C2=O)cc1OC
# output > 100 µM (inactive)

# input Request: CSC1(C)C(=O)Nc2c(OCc3ccccc3)cc([N+](=O)[O-])cc21 (stereo not drawn)
# output 66.1 µM (inactive)

# input Request: CSC1=N/C(=C\c2c[nH]c3ccccc23)C(=O)N1
# output > 100 µM (inactive)

# input Request: COc1ccc(C2CC(c3c(O)ccc4ccccc34)=NN2c2ccc([N+](=O)[O-])cc2[N+](=O)[O-])cc1OC (stereo not drawn)
# output 26.1 µM (inactive)

# input Request: CC1=C(C)SC(=C2Sc3[n-]c(=O)[nH]c(=O)c3S2)S1.CCCC[N+](CCCC)(CCCC)CCCC
# output 44.5 µM (inactive)

# input Request: c1ccc2c(c1)nnn2CNc1ccc(N2CCCCC2)cc1
# output > 100 µM (inactive)

# input Request: O=C(c1nc2ccc([N+](=O)[O-])cc2nc1O)C(O)c1ccc2c(c1)OCO2 (stereo not drawn)
# output > 100 µM (inactive)

# input Request: Cc1nc(N)nc(N)c1CCCCc1ccc(N)cc1
# output 7.98 µM (inactive)

# input Request: N/N=C(\Cc1ccccc1)NN=C(N)N
# output > 100 µM (inactive)

# input Request: Cc1ccc(O)c(C(c2ccc([N+](=O)[O-])cc2)c2cc(C)ccc2O)c1
# output 15.3 µM (inactive)

# input Request: Oc1cccc(-c2nc3ccccc3s2)c1
# output 28.7 µM (inactive)

# input Request: Clc1ccc(/N=C/c2cc3cc(Br)ccc3nc2Cl)cc1
# output 21.4 µM (inactive)

# input Request: O=C(NC1CCCCC1)NC12CC3CC(CC(F)(C3)C1)C2
# output > 100 µM (inactive)

# input Request: C/C(=N\NC(=S)Nc1ccccc1)c1nc2cccnc2[nH]1
# output 1.46 µM (inactive)

# input Request: Clc1cccc(/C=c2\nc(-c3ccccc3)n3c2nc2ccccc23)c1
# output 34.4 µM (inactive)
